In this section we review reported AC50 values for a set of compounds.
TARGET_DESC: Voltage-dependent L-type calcium channel subunit alpha-1C (Rattus norvegicus); also: assay procedure not described here
Sequence (P22002 whole entry): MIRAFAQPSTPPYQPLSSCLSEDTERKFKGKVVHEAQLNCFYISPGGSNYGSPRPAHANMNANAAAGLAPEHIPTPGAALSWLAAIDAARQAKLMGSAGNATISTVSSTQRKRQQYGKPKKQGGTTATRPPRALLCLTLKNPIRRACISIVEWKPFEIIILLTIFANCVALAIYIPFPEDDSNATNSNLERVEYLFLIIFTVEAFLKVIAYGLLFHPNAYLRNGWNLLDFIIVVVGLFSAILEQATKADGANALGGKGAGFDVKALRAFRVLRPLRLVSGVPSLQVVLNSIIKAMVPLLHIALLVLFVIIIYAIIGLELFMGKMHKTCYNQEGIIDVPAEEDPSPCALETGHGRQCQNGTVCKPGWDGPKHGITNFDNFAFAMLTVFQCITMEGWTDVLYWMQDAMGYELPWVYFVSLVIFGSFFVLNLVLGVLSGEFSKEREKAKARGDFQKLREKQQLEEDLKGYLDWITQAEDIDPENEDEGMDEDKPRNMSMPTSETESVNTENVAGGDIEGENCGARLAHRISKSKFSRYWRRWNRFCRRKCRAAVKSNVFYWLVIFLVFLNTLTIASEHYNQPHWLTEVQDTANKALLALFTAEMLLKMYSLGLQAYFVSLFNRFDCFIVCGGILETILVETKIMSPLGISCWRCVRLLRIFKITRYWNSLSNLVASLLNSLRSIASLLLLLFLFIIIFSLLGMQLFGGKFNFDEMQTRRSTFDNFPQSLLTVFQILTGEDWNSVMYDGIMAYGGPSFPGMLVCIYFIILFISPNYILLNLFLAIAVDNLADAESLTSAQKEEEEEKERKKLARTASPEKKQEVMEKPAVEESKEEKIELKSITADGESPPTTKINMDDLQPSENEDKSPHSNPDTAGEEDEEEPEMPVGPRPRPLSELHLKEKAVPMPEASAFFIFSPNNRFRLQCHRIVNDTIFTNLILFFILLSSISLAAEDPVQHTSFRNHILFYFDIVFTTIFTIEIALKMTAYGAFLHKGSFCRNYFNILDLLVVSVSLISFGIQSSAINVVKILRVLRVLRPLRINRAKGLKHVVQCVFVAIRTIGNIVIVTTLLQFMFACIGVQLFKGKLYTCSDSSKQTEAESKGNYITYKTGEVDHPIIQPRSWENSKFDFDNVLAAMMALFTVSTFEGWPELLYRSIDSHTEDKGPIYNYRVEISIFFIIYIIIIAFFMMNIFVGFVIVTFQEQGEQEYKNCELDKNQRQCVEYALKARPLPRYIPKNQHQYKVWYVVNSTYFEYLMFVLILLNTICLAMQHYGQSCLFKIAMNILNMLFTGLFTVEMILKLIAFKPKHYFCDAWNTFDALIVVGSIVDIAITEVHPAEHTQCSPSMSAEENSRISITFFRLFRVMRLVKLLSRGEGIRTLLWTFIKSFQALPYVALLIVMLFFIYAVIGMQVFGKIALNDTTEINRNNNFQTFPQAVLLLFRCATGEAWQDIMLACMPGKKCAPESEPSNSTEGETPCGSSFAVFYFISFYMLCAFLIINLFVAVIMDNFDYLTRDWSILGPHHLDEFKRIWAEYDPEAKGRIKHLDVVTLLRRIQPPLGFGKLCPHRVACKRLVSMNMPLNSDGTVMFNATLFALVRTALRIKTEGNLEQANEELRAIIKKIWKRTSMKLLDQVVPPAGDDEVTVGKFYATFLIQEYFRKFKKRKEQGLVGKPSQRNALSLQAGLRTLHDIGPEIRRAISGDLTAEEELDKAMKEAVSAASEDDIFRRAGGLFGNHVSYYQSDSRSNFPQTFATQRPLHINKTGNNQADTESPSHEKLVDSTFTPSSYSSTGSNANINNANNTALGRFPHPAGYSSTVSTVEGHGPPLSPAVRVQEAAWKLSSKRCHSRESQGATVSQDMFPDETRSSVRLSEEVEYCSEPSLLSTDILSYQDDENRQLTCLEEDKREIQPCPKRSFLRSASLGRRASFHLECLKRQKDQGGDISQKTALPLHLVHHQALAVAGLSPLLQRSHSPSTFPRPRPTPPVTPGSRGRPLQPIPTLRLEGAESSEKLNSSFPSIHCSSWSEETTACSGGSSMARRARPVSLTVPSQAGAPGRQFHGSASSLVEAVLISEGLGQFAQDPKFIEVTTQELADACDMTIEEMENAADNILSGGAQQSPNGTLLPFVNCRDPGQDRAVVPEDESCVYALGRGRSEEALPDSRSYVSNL
Type: functional

Sample answers from the record:
So what's the measured AC50 for this one? CC(c1cc2ccccc2s1)N(O)C(N)=O (configuration not stated)
> 10 µM

Recorded AC50 of COc1ccc2cc(CCC(C)=O)ccc2c1 , please.
> 10 µM

Entry O=C1c2cccc3c2[C@H](CCC3)CN1[C@@H]1CN2CCC1CC2 has what AC50?
> 30 µM

Could you share which AC50 value was measured for CCOC(=O)c1ccc(C#Cc2ccc3c(c2)C(C)(C)CCS3)nc1 ?
> 10 µM

Return reported AC50; argument: CCC(NC(C)C)C(O)c1ccc(O)c2[nH]c(=O)ccc12 (configuration not stated)
> 30 µM

Any idea what its AC50 is? The compound is O=c1c(O)c(-c2ccc(O)c(O)c2)oc2cc(O)cc(O)c12
> 10 µM

Next:
Look up AC50: C[C@@H]1C[C@H]2[C@@H]3CCC4=CC(=O)C=C[C@]4(C)[C@@]3(F)[C@@H](O)C[C@]2(C)[C@@]1(O)C(=O)CO
> 10 µM

###

TARGET_DESC: Alpha-2A adrenergic receptor (Homo sapiens); also: assay procedure not described here
Sequence (P08913 whole entry): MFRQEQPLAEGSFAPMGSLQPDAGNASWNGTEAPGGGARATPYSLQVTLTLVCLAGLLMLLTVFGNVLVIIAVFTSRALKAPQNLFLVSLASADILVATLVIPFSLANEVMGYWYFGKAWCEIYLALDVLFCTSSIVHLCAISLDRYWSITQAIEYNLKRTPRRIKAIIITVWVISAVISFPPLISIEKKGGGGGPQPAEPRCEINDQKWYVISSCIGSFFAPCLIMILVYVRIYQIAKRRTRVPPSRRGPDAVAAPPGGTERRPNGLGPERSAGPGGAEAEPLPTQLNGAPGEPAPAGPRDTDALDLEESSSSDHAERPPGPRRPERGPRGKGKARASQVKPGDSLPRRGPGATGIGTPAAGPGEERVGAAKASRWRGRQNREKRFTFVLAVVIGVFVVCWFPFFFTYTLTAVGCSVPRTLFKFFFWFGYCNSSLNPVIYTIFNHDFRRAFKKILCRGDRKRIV
Format: functional, cell-based
The following molecules are listed with their measured AC50 values.

Below, 2 molecules whose answers are already recorded.
What does the record list as AC50 for O=C(O)Cc1ccccc1Nc1c(Cl)cccc1Cl ?
> 10 µM

GET /values?readout=AC50&item= CCOC(=O)C1=C(C)NC(C)=C(C(=O)OCC)C1c1ccccc1/C=C/C(=O)OC(C)(C)C
> 30 µM

Here is another molecule to look at.
// AC50 lookup, key: O=c1[nH]c2ccccc2n1CCCN1CCN(C(c2ccccc2)c2ccccc2)CC1 [OXATOMIDE]
> 30 µM

###

TARGET_DESC: Neuropeptide Y receptor type 1 (Homo sapiens, UniProt P25929); also: assay procedure not described here
Sequence (P25929 whole entry): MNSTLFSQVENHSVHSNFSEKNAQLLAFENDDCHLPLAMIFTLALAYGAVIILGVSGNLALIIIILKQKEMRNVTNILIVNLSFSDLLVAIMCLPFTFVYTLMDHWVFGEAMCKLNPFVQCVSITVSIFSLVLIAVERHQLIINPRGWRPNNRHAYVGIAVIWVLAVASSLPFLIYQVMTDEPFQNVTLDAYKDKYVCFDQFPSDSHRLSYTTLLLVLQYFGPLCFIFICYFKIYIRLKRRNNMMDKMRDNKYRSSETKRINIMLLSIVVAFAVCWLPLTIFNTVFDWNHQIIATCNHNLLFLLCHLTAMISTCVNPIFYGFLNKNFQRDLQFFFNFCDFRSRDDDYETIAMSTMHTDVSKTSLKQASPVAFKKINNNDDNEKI
VALUE_KIND: AC50

// below: answered compounds
If you can, please state the reported AC50 value of CCC(=O)O[C@]1(C(=O)CCl)[C@@H](C)C[C@H]2[C@@H]3CCC4=CC(=O)C=C[C@]4(C)[C@@]3(F)[C@@H](O)C[C@@]21C [CLOBETASOL PROPIONATE] .
> 10 µM

Any idea what its AC50 is? The compound is Cn1c(=O)c2c(ncn2CCOC(=O)C(C)(C)Oc2ccc(Cl)cc2)n(C)c1=O [THEOFIBRATE]
> 30 µM

Fill blank: measured AC50 of the compound Cc1ccc(C)c(OCCCC(C)(C)C(=O)O)c1 is ____.
> 30 µM

Name the reported AC50 value associated with the compound O=C(O)CCNC(=O)c1ccc(/N=N/c2ccc(O)c(C(=O)O)c2)cc1 [BALSALAZIDE]
> 30 µM

Further cases:
Recorded AC50 for COc1ccc(C2C(=O)c3ccccc3C2=O)cc1 , please?
> 10 µM

Could you tell me which AC50 is on file for C[C@@H]1C[C@H]2[C@@H]3C[C@H](F)C4=CC(=O)C=C[C@]4(C)[C@@]3(F)[C@@H](O)C[C@]2(C)[C@@]1(OC(=O)c1ccco1)C(=O)SCF [FLUTICASONE FUROATE] ?
> 10 µM

What value of AC50 has been reported for the following compound? Cn1cc(C(=O)[C@@H]2CCc3nc[nH]c3C2)c2ccccc21
> 30 µM

Reported AC50, compound COc1cc(N)c(Cl)cc1C(=O)NC1CCN(CCCOc2ccc(F)cc2)CC1OC (centres undefined) [CISAPRIDE] : ____
> 30 µM

Can you share its AC50? I mean this compound: CCCc1cc(=O)[nH]c(=S)[nH]1
> 10 µM

Dear colleague, I am looking for the recorded AC50 of the following compound: CCCc1nc2c(C)cc(-c3nc4ccccc4n3C)cc2n1Cc1ccc(-c2ccccc2C(=O)O)cc1
> 30 µM

Which measured AC50 value corresponds to CC(CN1c2ccccc2Sc2ccccc21)N(C)C (centres undefined) ?
> 30 µM
